Origin of measurements: patent US20250339569A1

Kindly state t1/2 (half-life of the complex, SPR) for each of the entries shown.
Target: Fc-fusion protein of human carbonic anhydrase IX (human, UniProt Q16790 38-414)
Test: SPR, captured hCAIX-Fc; t1/2 category B: 5.1-15.0 min
Experimental: Stock solutions of test compounds were prepared by dissolving each compound in DMSO. DMSO stock solution were diluted 1:1000 in Running Buffer without DMSO. […] SPR binding analyses were performed in Single Cycle Kinetic (SCK) mode at 25° C. For each test compound, SPR raw data in the form of resonance units (RU) were plotted as sensorgrams using the Biacore™ T200 control software. […] The pKD value (negative decadic logarithm of dissociation constant) was calculated in the IDBS excel template.
Starred links: 1 amine or outer side, 2 acyl side, 3 side chain; linkers in the order of their positions; H or OH if unused. Positions of bridges follow the written chain, without caps; N, C: chain ends. Non-standard residues stand in square brackets, D forms with d. Groups on a side chain read outwards from the residue. Primed or numbered codes have the meaning given here. No end group written: not given here. ξ: configuration not given here. *: point of attachment. Af3(HySuc) = 3-amino-L-phenylalanine acylated on the ring amine with 2-(3,6-dioxo-1,2,3,6-tetrahydropyridazin-4-yl)acetic acid, O=C(Cc1cc(=O)[nH][nH]c1=O)Nc1cccc(C[C@H](N[*:1])C(=O)[*:2])c1; APAc″ = 2-(4-(amino)piperidin-1-yl)acetic acid, NC1CCN(CC(=O)*)CC1; DOTA = O=C(O)CN1CCN(CC(=O)O)CCN(CC(=O)*)CCN(CC(=O)O)CC1; Phe(3,4-Cl2) = N[C@@H](Cc1ccc(Cl)c(Cl)c1)C(=O)O; ξTrp(7-Me) = Cc1cccc2c(CC(N)C(=O)O)c[nH]c12; ξTrp(1-Me) = Cn1cc(CC(N)C(=O)O)c2ccccc21; mXylylene = c1cc(C[*:1])cc(C[*:2])c1; dPip = O=C(O)[C@H]1CCCCN1; Ac6c = NC1(C(=O)O)CCCCC1; 4Amc = not defined here; APAc = not defined here; Apr = not defined here; Dap = NC[C@H](N)C(=O)O; AEEA = NCCOCCOCC(=O)O

(Q) // lookup t1/2 (half-life of the complex, SPR) for Ac-SYCE[dP]DWLTWE([Apr-DOTA])C-NH2 (linker 3-12 via mXylylene; reading uncertain) [3BP-3873]
(A) 5.1 to 15 min

(Q) Queued: {DOTA-APAc″}-VYCE[dP]D[ξTrp(7-Me)]LTWSC-NH2 (linker 3-12 via mXylylene; not fully specified) [3BP-4158]
(A) 5.1 to 15 min

(Q) Queued: VYCEGDWLTWQC-NH2 (linker 3-12 via mXylylene; not fully specified (N-terminus); also: indium complexed by DOTA) [3BP-3328]
(A) 5.1 to 15 min

(Q) Queued: {DOTA-APAc″}-VYCE[dP]D[ξTrp(1-Me)]LTWSC-NH2 (linker 3-12 via mXylylene; not fully specified) [3BP-4144]
(A) 5.1 to 15 min

(Q) Queued: {DOTA-APAc}-VDCE[dP]D[Phe(3,4-Cl2)]LTW[Dap]C-NH2 (lactam 2-11; linker 3-12 via mXylylene; reading uncertain) [3BP-4439]
(A) 5.1 to 15 min

(Q) Queued: {DOTA-APAc}-VYCE[dP]D[Phe(3,4-Cl2)]LTWSC-NH2 (linker 3-12 via mXylylene; not fully specified; reading uncertain) [3BP-4133]
(A) 5.1 to 15 min

(Q) Queued: {DOTA-APAc″}-VYCE[dP]D[Af3(HySuc)]LTWSC-NH2 (linker 3-12 via mXylylene) [3BP-4322]
(A) 5.1 to 15 min

(Q) Queued: Ac-VYCE[dA]DWLTWAC-NH2 (linker 3-12 via mXylylene; SMILES CC(=O)N[C@H](C(=O)N[C@@H](Cc1ccc(O)cc1)C(=O)N[C@H]1CSCc2cccc(c2)CSC[C@@H](C(N)=O)NC(=O)[C@H](C)NC(=O)[C@H](Cc2c[nH]c3ccccc23)NC(=O)[C@H]([C@@H](C)O)NC(=O)[C@H](CC(C)C)NC(=O)[C@H](Cc2c[nH]c3ccccc23)NC(=O)[C@H](CC(=O)O)NC(=O)[C@@H](C)NC(=O)[C@H](CCC(=O)O)NC1=O)C(C)C) [3BP-3280]
(A) 5.1 to 15 min

(Q) Queued: {DOTA-4Amc}-YCE[dP]DWLTWSC-NH2 (linker 2-11 via mXylylene; reading uncertain) [3BP-3868]
(A) 5.1 to 15 min

(Q) Queued: Ac-VRCE[dP]DWLTWE([Apr-AEEA-DOTA])C-NH2 (linker 3-12 via 3MeBn; reading uncertain) [3BP-3734]
(A) 5.1 to 15 min

(Q) Queued: {DOTA-APAc}-VYCE[dP]DW[Ac6c]TWSC-NH2 (linker 3-12 via mXylylene; reading uncertain) [3BP-3584]
(A) 5.1 to 15 min

(Q) Queued: Ac-VFCE[dP]DWLTWE([Apr-DOTA])C-NH2 (linker 3-12 via mXylylene; reading uncertain) [3BP-3874]
(A) 5.1 to 15 min

(Q) Queued: {DOTA-APAc}-VSCE[dP]DWLTWSC-NH2 (linker 3-12 via mXylylene; reading uncertain) [3BP-4105]
(A) 5.1 to 15 min

(Q) Queued: Ac-SYCE[dP]DWLTWE([Apr-AEEA-DOTA])C-NH2 (linker 3-12 via 3MeBn; reading uncertain) [3BP-3732]
(A) 5.1 to 15 min

(Q) Queued: Ac-VYCE[dPip]DWLTWAC-NH2 (linker 3-12 via mXylylene; SMILES CC(=O)N[C@H](C(=O)N[C@@H](Cc1ccc(O)cc1)C(=O)N[C@H]1CSCc2cccc(c2)CSC[C@@H](C(N)=O)NC(=O)[C@H](C)NC(=O)[C@H](Cc2c[nH]c3ccccc23)NC(=O)[C@H]([C@@H](C)O)NC(=O)[C@H](CC(C)C)NC(=O)[C@H](Cc2c[nH]c3ccccc23)NC(=O)[C@H](CC(=O)O)NC(=O)[C@H]2CCCCN2C(=O)[C@H](CCC(=O)O)NC1=O)C(C)C) [3BP-3283]
(A) 5.1 to 15 min
